- Measurement protocol: Stability assays of the micronised samples (polymorphic stability on storage, PXRD)
- Type: physicochemical
- Test settings: 40° C.-75% RH; transparent and opaque vacuum containers
Structures can show the parent of a compound that is named as a salt.
Below, each entry is listed alongside its reported % of orthorhombic form after 1 months.
The figure you give is taken to be in %; do not add the unit.

Use the examples below as a reference point.
CN1C[C@@H]2c3ccccc3Oc3ccc(Cl)cc3[C@H]2C1 (racemic) [Example 2, asenapine maleate]
9
CN1C[C@@H]2c3ccccc3Oc3ccc(Cl)cc3[C@H]2C1 (racemic) [Example 3, asenapine maleate]
5
CN1C[C@@H]2c3ccccc3Oc3ccc(Cl)cc3[C@H]2C1 (racemic) [Example 3.1, asenapine maleate]
4

Read the next record carefully.
GET /value?item= CN1C[C@@H]2c3ccccc3Oc3ccc(Cl)cc3[C@H]2C1 (racemic) [Example 2.1, asenapine maleate] &field=% of orthorhombic form after 1 months returns 8

====

- Measurement protocol: PXRD determination of orthorhombic form content in the micronised product
- Format: physicochemical
- Test settings: directly after micronisation, before storage
Structures can show the parent of a compound that is named as a salt.
Reported metric: % of orthorhombic form in the micronised product

CN1C[C@@H]2c3ccccc3Oc3ccc(Cl)cc3[C@H]2C1 (racemic) [Example 3, asenapine maleate]
3%
CN1C[C@@H]2c3ccccc3Oc3ccc(Cl)cc3[C@H]2C1 (racemic) [Example 2.1, asenapine maleate]
<1%
CN1C[C@@H]2c3ccccc3Oc3ccc(Cl)cc3[C@H]2C1 (racemic) [Example 4, asenapine maleate]
<1%

GET /value?item= CN1C[C@@H]2c3ccccc3Oc3ccc(Cl)cc3[C@H]2C1 (racemic) [Example 2, asenapine maleate] &field=% of orthorhombic form in the micronised product returns 5%

GET /value?item= CN1C[C@@H]2c3ccccc3Oc3ccc(Cl)cc3[C@H]2C1 (racemic) [Example 3.1, asenapine maleate] &field=% of orthorhombic form in the micronised product returns <1%

GET /value?item= CN1C[C@@H]2c3ccccc3Oc3ccc(Cl)cc3[C@H]2C1 (racemic) [Example 5, asenapine maleate] &field=% of orthorhombic form in the micronised product returns <1%

====

- Measurement protocol: PXRD determination of orthorhombic form content in the micronised product
- Assay type: physicochemical
- Test settings: after micronisation
Counter-ions that a name gives are not always drawn.
Reported metric: orthorhombic form contained in the micronised product, as determined by PXRD

CN1C[C@@H]2c3ccccc3Oc3ccc(Cl)cc3[C@H]2C1 (racemic) [Example 6, asenapine maleate]
less than 1 % by weight
CN1C[C@@H]2c3ccccc3Oc3ccc(Cl)cc3[C@H]2C1 (racemic) [Example 4, asenapine maleate]
less than 1 % by weight
CN1C[C@@H]2c3ccccc3Oc3ccc(Cl)cc3[C@H]2C1 (racemic) [Example 5, asenapine maleate]
less than 1 % by weight

====

- Measurement protocol: Stability assays of the micronised samples (polymorphic stability on storage, PXRD)
- Format: physicochemical
- Test settings: 40° C.-75% RH; transparent and opaque vacuum containers
Counter-ions that a name gives are not always drawn.
Below, each entry is listed alongside its reported % of orthorhombic form after 3 months.
The figure you give is taken to be in %; do not add the unit.

CN1C[C@@H]2c3ccccc3Oc3ccc(Cl)cc3[C@H]2C1 (racemic) [Example 2, asenapine maleate]
13
CN1C[C@@H]2c3ccccc3Oc3ccc(Cl)cc3[C@H]2C1 (racemic) [Example 3, asenapine maleate]
8
CN1C[C@@H]2c3ccccc3Oc3ccc(Cl)cc3[C@H]2C1 (racemic) [Example 2.1, asenapine maleate]
12

GET /value?item= CN1C[C@@H]2c3ccccc3Oc3ccc(Cl)cc3[C@H]2C1 (racemic) [Example 3.1, asenapine maleate] &field=% of orthorhombic form after 3 months returns 7

Source listed as patent US9505771B2.
